# Experimental target: Phosphatidylinositol 4,5-bisphosphate 3-kinase catalytic subunit delta isoform (Homo sapiens)
# Sequence (O00329 whole entry): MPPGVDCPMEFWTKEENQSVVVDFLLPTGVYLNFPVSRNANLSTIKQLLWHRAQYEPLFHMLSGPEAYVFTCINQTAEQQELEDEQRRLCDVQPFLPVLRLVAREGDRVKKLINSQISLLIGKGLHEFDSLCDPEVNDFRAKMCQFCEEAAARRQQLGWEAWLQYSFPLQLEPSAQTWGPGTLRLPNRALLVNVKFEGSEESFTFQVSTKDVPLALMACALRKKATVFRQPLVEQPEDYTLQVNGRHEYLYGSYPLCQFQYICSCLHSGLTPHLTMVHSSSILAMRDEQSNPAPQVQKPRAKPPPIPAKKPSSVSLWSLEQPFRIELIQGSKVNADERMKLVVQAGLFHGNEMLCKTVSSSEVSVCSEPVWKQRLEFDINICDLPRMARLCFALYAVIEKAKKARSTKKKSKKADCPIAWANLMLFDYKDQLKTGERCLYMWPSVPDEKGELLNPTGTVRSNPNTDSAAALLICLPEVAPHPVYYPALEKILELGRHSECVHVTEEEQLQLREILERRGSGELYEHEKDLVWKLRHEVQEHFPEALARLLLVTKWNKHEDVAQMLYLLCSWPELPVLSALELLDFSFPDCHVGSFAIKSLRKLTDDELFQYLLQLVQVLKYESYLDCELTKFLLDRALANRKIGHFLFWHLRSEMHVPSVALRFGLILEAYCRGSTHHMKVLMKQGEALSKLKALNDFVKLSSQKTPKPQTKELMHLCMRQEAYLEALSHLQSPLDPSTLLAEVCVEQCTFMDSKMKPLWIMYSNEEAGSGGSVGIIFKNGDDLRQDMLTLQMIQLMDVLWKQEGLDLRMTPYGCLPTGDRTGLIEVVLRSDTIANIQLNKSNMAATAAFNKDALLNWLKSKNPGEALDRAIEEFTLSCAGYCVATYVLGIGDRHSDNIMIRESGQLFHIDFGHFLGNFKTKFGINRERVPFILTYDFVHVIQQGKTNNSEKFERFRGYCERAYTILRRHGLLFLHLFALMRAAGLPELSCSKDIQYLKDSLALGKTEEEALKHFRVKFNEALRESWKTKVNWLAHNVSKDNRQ
# Measurement notes: Inhibition of recombinant PI3K p110delta using L-alpha-phosphatidylinositol as substrate and [gamma33P]ATP after 60 mins by thin layer chromatographic technique
Parameter: IC50 (nM)

Let me know recorded IC50 for `C/C(=N\NS(=O)(=O)c1cc([N+](=O)[O-])ccc1C)c1cnn2ccc(Br)cc12` , thanks. 220

Let me know recorded IC50 for `Cc1ccc([N+](=O)[O-])cc1S(=O)(=O)N(C)/N=C/c1cnn2ccc(I)cc12` , thanks. 170

Let me know recorded IC50 for `C#Cc1ccn2ncc(/C=N/N(C)S(=O)(=O)c3cc([N+](=O)[O-])ccc3C)c2c1` , thanks. 41

Let me know recorded IC50 for `C/C(=N\N(C)S(=O)(=O)c1cc([N+](=O)[O-])ccc1C)c1cnn2ccc(C#N)cc12` , thanks. 510

Let me know recorded IC50 for `Cc1ccc([N+](=O)[O-])cc1S(=O)(=O)N(C)/N=C/c1cnn2cc(F)c(C#N)cc12` , thanks. 2500

(a) Cc1ccc([N+](=O)[O-])cc1S(=O)(=O)N(C)/N=C/c1cnn2ccc(Br)cc12
(b) CCC/C(=N\NS(=O)(=O)c1cc([N+](=O)[O-])ccc1C)c1cnn2ccc(C#N)cc12
Kindly identify the item with the lower IC50 figure among these two: a and b Respond with the label that goes with your answer. a
